biological target: T1, human CTLA-4, full-length, expressed on transfected Expi293 cells (human, UniProt P16410 36-223); assay: flow cytometry, 100 nM, Expi293 cells with human CTLA-4
T1 construct: whole, on cells
T1 sequence (P16410 36-223): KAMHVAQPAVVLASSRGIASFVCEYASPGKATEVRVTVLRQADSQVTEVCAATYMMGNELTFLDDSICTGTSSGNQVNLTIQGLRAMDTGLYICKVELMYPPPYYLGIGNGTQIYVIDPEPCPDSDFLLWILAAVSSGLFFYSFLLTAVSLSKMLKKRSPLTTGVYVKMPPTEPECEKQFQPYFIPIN
# MFI per entry
# output: bare number, implied unit MFI

// known answers, use as guide
variant ICOSL IgV-Fc fusion N52L/N57H/Q100R (Fc fusion) DTQEKEVRAMVGSDVELSCACPEGSRFDLNDVYVYWQTSESKTVVTYHIPQLSSLEHVDSRYRNRALMSPAGMLRGDFSLRLFNVTPQDEQKFHCLVLSRSLGFQEVLSVEVTLHVAANFSVGSGGGGSEPKSSDKTHTCPPCPAPEAEGAPSVFLFPPKPKDTLMISRTPEVTCVVVDVSHEDPEVKFNWYVDGVEVHNAKTKPREEQYNSTYRVVSVLTVLHQDWLNGKEYKCKVSNKALPAPIEKTISKAKGQPREPQVYTLPPSREEMTKNQVSLTCLVKGFYPSDIAVEWESNGQPENNYKTTPPVLDSDGSFFLYSKLTVDKSRWQQGNVFSCSVMHEALHNHYTQKSLSLSPG = 353000
variant ICOSL IgV-Fc fusion N52M/N57W/Q100P (Fc fusion) DTQEKEVRAMVGSDVELSCACPEGSRFDLNDVYVYWQTSESKTVVTYHIPQMSSLEWVDSRYRNRALMSPAGMLRGDFSLRLFNVTPQDEQKFHCLVLSPSLGFQEVLSVEVTLHVAANFSVGSGGGGSEPKSSDKTHTCPPCPAPEAEGAPSVFLFPPKPKDTLMISRTPEVTCVVVDVSHEDPEVKFNWYVDGVEVHNAKTKPREEQYNSTYRVVSVLTVLHQDWLNGKEYKCKVSNKALPAPIEKTISKAKGQPREPQVYTLPPSREEMTKNQVSLTCLVKGFYPSDIAVEWESNGQPENNYKTTPPVLDSDGSFFLYSKLTVDKSRWQQGNVFSCSVMHEALHNHYTQKSLSLSPG = 343000

Query: Please look up its MFI: variant ICOSL IgV-Fc fusion N52R/N57W (Fc fusion) DTQEKEVRAMVGSDVELSCACPEGSRFDLNDVYVYWQTSESKTVVTYHIPQRSSLEWVDSRYRNRALMSPAGMLRGDFSLRLFNVTPQDEQKFHCLVLSQSLGFQEVLSVEVTLHVAANFSVGSGGGGSEPKSSDKTHTCPPCPAPEAEGAPSVFLFPPKPKDTLMISRTPEVTCVVVDVSHEDPEVKFNWYVDGVEVHNAKTKPREEQYNSTYRVVSVLTVLHQDWLNGKEYKCKVSNKALPAPIEKTISKAKGQPREPQVYTLPPSREEMTKNQVSLTCLVKGFYPSDIAVEWESNGQPENNYKTTPPVLDSDGSFFLYSKLTVDKSRWQQGNVFSCSVMHEALHNHYTQKSLSLSPG
Result: 318000

Query: Please look up its MFI: variant ICOSL IgV-Fc fusion N52D/N57A/Q100A (Fc fusion) DTQEKEVRAMVGSDVELSCACPEGSRFDLNDVYVYWQTSESKTVVTYHIPQDSSLEAVDSRYRNRALMSPAGMLRGDFSLRLFNVTPQDEQKFHCLVLSASLGFQEVLSVEVTLHVAANFSVGSGGGGSEPKSSDKTHTCPPCPAPEAEGAPSVFLFPPKPKDTLMISRTPEVTCVVVDVSHEDPEVKFNWYVDGVEVHNAKTKPREEQYNSTYRVVSVLTVLHQDWLNGKEYKCKVSNKALPAPIEKTISKAKGQPREPQVYTLPPSREEMTKNQVSLTCLVKGFYPSDIAVEWESNGQPENNYKTTPPVLDSDGSFFLYSKLTVDKSRWQQGNVFSCSVMHEALHNHYTQKSLSLSPG
Result: 340000
